Test system: IMR-5;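 further: growth inhibition of human IMR-5 cells, read out with a cell viability assay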
Experiment: cells
Type: functional, cell-based
Settings: Homo sapiens
Description: SANGER: Inhibition of human IMR-5 cell growth in a cell viability assay.
pIC50: −log10 of the molar value.
measuredParameter: pIC50

Known results for compounds:
compound | measurement
CS(=O)(=O)CCNCc1ccc(-c2ccc3ncnc(Nc4ccc(OCc5cccc(F)c5)c(Cl)c4)c3c2)o1 [LAPATINIB] | < 5.70
CCc1nc(N)nc(N)c1-c1ccc(Cl)cc1 [PYRIMETHAMINE] | < 4.70
Cn1cncc1[C@@](N)(c1ccc(Cl)cc1)c1ccc2c(c1)c(-c1cccc(Cl)c1)cc(=O)n2C [TIPIFARNIB] | < 4.80
CNC(=O)c1cc(Oc2ccc(NC(=O)Nc3ccc(Cl)c(C(F)(F)F)c3)cc2)ccn1 [SORAFENIB] | < 5.40
C=C1C(=O)O[C@@H]2C3O[C@]3(C)CC/C=C(\C)CC[C@@H]12 (stereo partly specified) | < 5.30

Now for another entry.
Prompt line: Param item = Cc1cc(Nc2cc(N3CCN(C)CC3)nc(Sc3ccc(NC(=O)C4CC4)cc3)n2)n[nH]1 [TOZASERTIB] ; retrieve measured pIC50.
Response line: 6.45
